Task for the reader: assign each of the following variants its reported protein stability index.
B1: BCL2L13 (parent)
chain: MASSSTVPLGFHYETKYVVLSYLG

Variants of: B1
Assay: protein stability index of a GFP-peptide fusion (GPS, HEK-293T) (PSI 1-6); higher = more stable;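 further: lentivirally expressed fusions sorted by FACS into six bins by GFP to DsRed ratio, PSI derived from sequencing read proportions per bin multiplied by bin number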
Conditions: c terminus: a fixed tail appended

Can you give me protein stability index for all of these, one by one?
1. K16F
2. V7W
3. Y17R
4. V7I
5. L9S
6. L23Y
7. L23R
8. Y22F

2.32
2.36
1.66
2.72
3.42
2.46
2.21
2.49
